Test system: Escherichia coli TOP10
Experiment: shrunken log2 fold change of peptide-encoding DNA abundance (4.5 h post-induction vs induction); higher = less antimicrobial activity (less host growth inhibition)
Conditions: time post-induction: 4.5 h; library: site-saturation at positions 5, 18, 19, 20
Measured shrunken log2 fold change, listed per entry for reference.
Form: value (number only, do not type unit).

Here are 3 sequences together with their reported answers.
Chain: RRIRVRPPRLPRPRPRPLAAPRP
Target or test system: Escherichia coli TOP10
shrunken log2 fold change: 0.152
//
Chain: RRIRNRPPRLPRPRPRPFTMPRP
Target or test system: Escherichia coli TOP10
shrunken log2 fold change: -0.149
//
Chain: RRIRTRPPRLPRPRPRPLQSPRP
Target or test system: Escherichia coli TOP10
shrunken log2 fold change: -0.00232

Input line: Requested field: shrunken log2 fold change. Item: "RRIRARPPRLPRPRPRPTKTPRP"
Output line: 0.247

Input line: Requested field: shrunken log2 fold change. Item: "RRIRCRPPRLPRPRPRPWSGPRP"
Output line: -0.0937

Input line: Requested field: shrunken log2 fold change. Item: "RRIRYRPPRLPRPRPRPGIWPRP"
Output line: 0.138

Input line: Requested field: shrunken log2 fold change. Item: "RRIRQRPPRLPRPRPRPPPMPRP"
Output line: 0.558

Input line: Requested field: shrunken log2 fold change. Item: "RRIRARPPRLPRPRPRPSLSPRP"
Output line: -0.224

---

System: Escherichia coli TOP10
Assay: shrunken log2 fold change of peptide-encoding DNA abundance (4.5 h post-induction vs induction); higher = less antimicrobial activity (less host growth inhibition)
Conditions: time post-induction: 4.5 h; library: site-saturation at positions 5, 18, 19, 20
Endpoint: shrunken log2 fold change
Form: value (number only, do not type unit).

Here are 3 sequences together with their reported answers.
Chain: RRIRGRPPRLPRPRPRPASHPRP
shrunken log2 fold change: 0.252
--
Chain: RRIRIRPPRLPRPRPRPHVKPRP
shrunken log2 fold change: -0.213
--
Chain: RRIRMRPPRLPRPRPRPMAQPRP
shrunken log2 fold change: -0.0018

# context switch: different sequence, same shrunken log2 fold change
Input line: Requested field: shrunken log2 fold change. Item: "RRIRRRPPRLPRPRPRPEKLPRP"
Output line: 0.128

---

System: Escherichia coli TOP10
Experiment: shrunken log2 fold change of peptide-encoding DNA abundance (4.5 h post-induction vs induction); higher = less antimicrobial activity (less host growth inhibition)
Conditions: time post-induction: 4.5 h; library: site-saturation at positions 5, 18, 19, 20
Endpoint: shrunken log2 fold change
Form: value (number only, do not type unit).

Here are 8 sequences together with their reported answers.
Chain: RRIRIRPPRLPRPRPRPRHDPRP
shrunken log2 fold change: -0.385
//
Chain: RRIRLRPPRLPRPRPRPETIPRP
shrunken log2 fold change: 0.0243
//
Chain: RRIRGRPPRLPRPRPRPFTNPRP
shrunken log2 fold change: 0.0545
//
Chain: RRIRKRPPRLPRPRPRPRNKPRP
shrunken log2 fold change: -0.08
//
Chain: RRIRTRPPRLPRPRPRPMLYPRP
shrunken log2 fold change: -0.131
//
Chain: RRIRIRPPRLPRPRPRPQIGPRP
shrunken log2 fold change: -0.451
//
Chain: RRIRRRPPRLPRPRPRPRYWPRP
shrunken log2 fold change: 0.088
//
Chain: RRIRRRPPRLPRPRPRPNFIPRP
shrunken log2 fold change: -0.481

Input line: Requested field: shrunken log2 fold change. Item: "RRIRRRPPRLPRPRPRPIEFPRP"
Output line: -0.0597

Input line: Requested field: shrunken log2 fold change. Item: "RRIRYRPPRLPRPRPRPCSFPRP"
Output line: -0.0048

Input line: Requested field: shrunken log2 fold change. Item: "RRIRDRPPRLPRPRPRPEKVPRP"
Output line: -0.00893

---

Tested on: Escherichia coli TOP10
Test: shrunken log2 fold change of peptide-encoding DNA abundance (4.5 h post-induction vs induction); higher = less antimicrobial activity (less host growth inhibition)
Settings: time post-induction: 4.5 h; library: site-saturation at positions 5, 18, 19, 20
Endpoint: shrunken log2 fold change
Form: value (number only, do not type unit).

Chain: RRIRRRPPRLPRPRPRPRFWPRP
Target or test system: Escherichia coli TOP10
Value measured: 0.652
--
Chain: RRIRIRPPRLPRPRPRPDFWPRP
Target or test system: Escherichia coli TOP10
Value measured: 0.0448
--
Chain: RRIRNRPPRLPRPRPRPHDVPRP
Target or test system: Escherichia coli TOP10
Value measured: -0.0113
--
Chain: RRIRGRPPRLPRPRPRPWHRPRP
Target or test system: Escherichia coli TOP10
Value measured: 0.0496
--
Chain: RRIRLRPPRLPRPRPRPCAGPRP
Target or test system: Escherichia coli TOP10
Value measured: 0.0736
--
Chain: RRIRKRPPRLPRPRPRPDRNPRP
Target or test system: Escherichia coli TOP10
Value measured: 0.158

Input line: Requested field: shrunken log2 fold change. Item: "RRIRYRPPRLPRPRPRPKDCPRP"
Output line: -0.494

Input line: Requested field: shrunken log2 fold change. Item: "RRIRKRPPRLPRPRPRPLLYPRP"
Output line: 0.0166

Input line: Requested field: shrunken log2 fold change. Item: "RRIRLRPPRLPRPRPRPACPPRP"
Output line: -0.00982

Input line: Requested field: shrunken log2 fold change. Item: "RRIRERPPRLPRPRPRPFPPPRP"
Output line: -0.38

Input line: Requested field: shrunken log2 fold change. Item: "RRIRFRPPRLPRPRPRPRLDPRP"
Output line: 0.0416

Input line: Requested field: shrunken log2 fold change. Item: "RRIRLRPPRLPRPRPRPWNVPRP"
Output line: -0.0513

---

Measured shrunken log2 fold change, listed per entry for reference.
Test system: Escherichia coli TOP10
Experiment: shrunken log2 fold change of peptide-encoding DNA abundance (4.5 h post-induction vs induction); higher = less antimicrobial activity (less host growth inhibition)
Conditions: time post-induction: 4.5 h; library: site-saturation at positions 5, 18, 19, 20
Form: value (number only, do not type unit).

Here are 6 sequences together with their reported answers.
Chain: RRIRDRPPRLPRPRPRPELVPRP
Value measured: 0.00724

Chain: RRIRTRPPRLPRPRPRPWDGPRP
Value measured: 0.0729

Chain: RRIRTRPPRLPRPRPRPGIHPRP
Value measured: -0.158

Chain: RRIRPRPPRLPRPRPRPRQDPRP
Value measured: 0.351

Chain: RRIRTRPPRLPRPRPRPVRTPRP
Value measured: 0.149

Chain: RRIRVRPPRLPRPRPRPDSRPRP
Value measured: 0.0857

Input line: Requested field: shrunken log2 fold change. Item: "RRIRVRPPRLPRPRPRPQWFPRP"
Output line: -0.134

Input line: Requested field: shrunken log2 fold change. Item: "RRIRLRPPRLPRPRPRPMHSPRP"
Output line: -0.13

Input line: Requested field: shrunken log2 fold change. Item: "RRIRIRPPRLPRPRPRPMIYPRP"
Output line: -0.205

Input line: Requested field: shrunken log2 fold change. Item: "RRIRFRPPRLPRPRPRPQCQPRP"
Output line: -0.0517

Input line: Requested field: shrunken log2 fold change. Item: "RRIRKRPPRLPRPRPRPLHAPRP"
Output line: 0.449

---

Tested on: Escherichia coli TOP10
Test: shrunken log2 fold change of peptide-encoding DNA abundance (4.5 h post-induction vs induction); higher = less antimicrobial activity (less host growth inhibition)
Conditions: time post-induction: 4.5 h; library: site-saturation at positions 5, 18, 19, 20
Measured shrunken log2 fold change, listed per entry for reference.
Form: value (number only, do not type unit).

Chain: RRIRDRPPRLPRPRPRPIWPPRP
Target or test system: Escherichia coli TOP10
Value measured: 0.0998
//
Chain: RRIRQRPPRLPRPRPRPQYFPRP
Target or test system: Escherichia coli TOP10
Value measured: -0.00133
//
Chain: RRIRDRPPRLPRPRPRPNFWPRP
Target or test system: Escherichia coli TOP10
Value measured: 0.375
//
Chain: RRIRGRPPRLPRPRPRPANSPRP
Target or test system: Escherichia coli TOP10
Value measured: 0.186
//
Chain: RRIRQRPPRLPRPRPRPQDCPRP
Target or test system: Escherichia coli TOP10
Value measured: -0.186

Input line: Requested field: shrunken log2 fold change. Item: "RRIRNRPPRLPRPRPRPHDYPRP"
Output line: 0.0503

Input line: Requested field: shrunken log2 fold change. Item: "RRIRIRPPRLPRPRPRPIAEPRP"
Output line: -0.22

Input line: Requested field: shrunken log2 fold change. Item: "RRIRGRPPRLPRPRPRPFEMPRP"
Output line: 0.396

---

System: Escherichia coli TOP10
Assay: shrunken log2 fold change of peptide-encoding DNA abundance (4.5 h post-induction vs induction); higher = less antimicrobial activity (less host growth inhibition)
Details: time post-induction: 4.5 h; library: site-saturation at positions 5, 18, 19, 20
Group membership follows shrunken log2 fold change per the scheme 0: < -0.09; 1: ≥ -0.09 and < 0.1; 2: ≥ 0.1

Chain: RRIRTRPPRLPRPRPRPRWFPRP
Target or test system: Escherichia coli TOP10
Class label: 2
//
Chain: RRIRSRPPRLPRPRPRPGMTPRP
Target or test system: Escherichia coli TOP10
Class label: 0
//
Chain: RRIRWRPPRLPRPRPRPSCVPRP
Target or test system: Escherichia coli TOP10;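 further: peptides expressed intracellularly from a pBAD plasmid library in pooled LB shake-flask culture, induced with 0.3% L-arabinose, DNA abundance read by NGS, three biological replicates, DESeq2 with apeglm shrinkage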
Class label: 2

Input line: Place this sequence in its band: "RRIRGRPPRLPRPRPRPIKYPRP"
Output line: 1

Input line: Place this sequence in its band: "RRIRERPPRLPRPRPRPYCMPRP"
Output line: 0

Input line: Place this sequence in its band: "RRIRMRPPRLPRPRPRPKHGPRP"
Output line: 2

Input line: Place this sequence in its band: "RRIRPRPPRLPRPRPRPSPVPRP"
Output line: 1

Input line: Place this sequence in its band: "RRIRARPPRLPRPRPRPPGAPRP"
Output line: 2

Input line: Place this sequence in its band: "RRIRVRPPRLPRPRPRPQNNPRP"
Output line: 0

Input line: Place this sequence in its band: "RRIRRRPPRLPRPRPRPEEIPRP"
Output line: 1

Input line: Place this sequence in its band: "RRIRPRPPRLPRPRPRPLQGPRP"
Output line: 2

Input line: Place this sequence in its band: "RRIRQRPPRLPRPRPRPHGVPRP"
Output line: 0

Input line: Place this sequence in its band: "RRIRERPPRLPRPRPRPSIPPRP"
Output line: 0
